# PROCEDURE_TEXT: Phase I metabolism assay of n-butylidenephthalide, dog hepatic microsomes, LC-MS/MS
# Format: in vitro ADME
# REPORTED_CONDITIONS: Dog hepatic microsomes 0.5 mg/mL, BP 2 mM, NADPH, 37° C., 60 minutes
EXPERIMENTAL_READOUT: Biotransformation pathway (Phase I metabolites of n-butylidenephthalide)

CCCCC1(O)OC(=O)c2ccccc21 (centres unmarked) :: Hydrogenation (forming
CCCCC(=O)c1ccccc1C(=O)O :: Hydrogenation (forming

---

# PROCEDURE_TEXT: Phase I metabolism assay of n-butylidenephthalide, human hepatic microsomes, LC-MS/MS
# Type: in vitro ADME
# REPORTED_CONDITIONS: Human hepatic microsomes 0.5 mg/mL, BP 2 mM, NADPH, 37° C., 60 minutes
EXPERIMENTAL_READOUT: Biotransformation pathway (Phase I metabolites of n-butylidenephthalide)

CCCCC1(O)OC(=O)c2ccccc21 (centres unmarked) :: Hydrogenation (forming
CCCCC(=O)c1ccccc1C(=O)O :: Hydrogenation (forming
